Taken from ChEMBL document CHEMBL4020768.

So I've got a bunch of molecules here, and I need their Ki values.
- test system: Sigma intracellular receptor 2 (Rattus norvegicus)
- Sequence (Q5U3Y7 whole entry): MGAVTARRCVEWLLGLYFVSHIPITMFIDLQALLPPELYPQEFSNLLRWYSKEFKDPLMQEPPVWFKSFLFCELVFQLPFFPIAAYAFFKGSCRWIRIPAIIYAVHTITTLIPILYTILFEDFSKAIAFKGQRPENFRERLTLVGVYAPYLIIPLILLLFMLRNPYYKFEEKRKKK
- test description: Displacement of (+)-[3H]-ditolylguanidine from recombinant rat sigma 2 receptor expressed in rat PC12 cell membranes after 90 mins in presence of sigma 1 receptor blocker (+)-SKF-10047 by scintillation counting method
Express your answer in nM, writing the number without its unit.

Query: What value of Ki has been reported for the following molecule? CC(Cc1ccc(C(C)(C)C)cc1)CN1C[C@@H](C)O[C@@H](C)C1 (some centres not stated)
Result: 854

Query: Also check CC(C)(C)c1ccc(CCCN2CCOCC2)cc1
Result: 930

Query: Also check C[C@@H]1CN(CCCc2ccc(C(C)(C)C)cc2)C[C@@H](C)O1 (relative stereo)
Result: 66.1

Query: Also check CC1CN(CCCc2ccc(C(C)(C)C)cc2)CC(C)O1 (mixture of isomers)
Result: 77.9

Query: Also check CC(C)(C)c1ccc(CCCN2CCCCC2)cc1
Result: 31.5

Query: Also check c1ccc(CCCN2CCOCC2)cc1
Result: 2020

Query: Also check CC1CCN(CCCc2ccc(C(C)(C)C)cc2)CC1
Result: 13.8
